Measured composite z-score accompanies every entry in the list below.
assay: binders from COS7 lysate, DM2A8 probe, primary screen, torsin A project, cell lysate, small-molecule microarray, fluorescence 635/667 (AID 1065); conditions: higher = more signal, COS7 lysate expressing mutant human TOR1A
assay_metric: composite z-score

{"columns": ["molecule", "recorded_number"],
 "data": [
  ["COc1ccc(CCNC(=O)[C@@]2(Sc3ccc(C)cc3)CC(=O)N(Cc3cc(C(F)(F)F)cc(C(F)(F)F)c3)[C@@H]2c2ccc(CO)cc2I)cc1", -0.671],
  ["CCCCC(CC)C(O)C1C=CC2C(=O)N(c3ccccc3)C(=O)C2N1Nc1ccc([N+](=O)[O-])cc1 (configuration not stated)", 0.153],
  ["CC(C)(C)OC(=O)CC[C@@]1(C(=O)O)N=C(c2ccc(OCCCO)cc2)O[C@@H]1c1ccccc1", -0.648],
  ["C=C(CCCC)/C(=C/C[C@@H](OC(C)=O)c1ccc(CO)o1)c1cc(C(=O)OC)ccc1OC", 0.273],
  ["CCOc1cc(C(O)C2C=CC3C(=O)N(C)C(=O)C3N2N2CCCCC2)ccc1O (configuration not stated)", 0.38],
  ["CN1C(=O)[C@@]2(CCS(=O)(=O)c3ccccc3)N=C(c3ccc(OCCCO)cc3)O[C@H]2c2ccccc21", 0.394],
  ["NC(=O)NCC#Cc1ccc2c(c1)[C@]1(C(=O)N2)[C@H](c2ccc(O)cc2)N2[C@H](c3ccccc3)[C@H](c3ccccc3)OC(=O)[C@H]2[C@@H]1C(=O)Nc1nc2ccccc2s1", 0.21]
]}

###

test: binders of probe aFSTL3 on microarray, primary screen, stem cell growth factor project, biochemical, small-molecule microarray, fluorescence 635/667 (AID 1064); conditions: higher = more signal;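 note: measures binding of the biotinylated anti-FSTL3 antibody to printed compounds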

{"columns": ["molecule", "composite z-score"],
 "data": [
  ["CC(C)C(=C=CC[C@H](O)c1ccc(OCCO)cc1)C[C@H](O)c1cc(Cl)cc(Cl)c1O", -0.321],
  ["C=CCNC(=O)[C@@H]1[C@H]2C(=O)O[C@H](c3ccccc3)[C@H](c3ccccc3)N2[C@H](c2ccccc2OCCO)[C@@]12C(=O)N(C(=O)OCCOC)c1ccc(C#CC3=CCCCC3)cc12", -0.0809],
  ["O=C1O[C@@H](c2ccccc2)[C@@H](c2ccccc2)N2[C@@H](c3ccccc3OCCO)[C@]3(C(=O)Nc4ccc(C#CC5=CCCCC5)cc43)[C@@H](C(=O)NC[C@H](O)c3ccccc3)[C@H]12", -0.595]
]}

###

assay: E. coli DRC41 culture turbidity changes, primary screen, E. coli filamentation inducer project, strain DRC41, OD650, 48 h (AID 1152);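 note: E. coli MC1000 strain DRC41 lacking acrAB efflux pump and sulA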; conditions: E. coli DRC41 (acrAB sulA), higher = more signal, called active from +8 up or from −8 down
// criterion not met strictly below 0.04 in z-score; criterion met otherwise

{"columns": ["molecule", "label_value"],
 "data": [
  ["COC(=O)C[C@H]1O[C@]2(C(=O)N(C)c3ccccc32)[C@@H](C)[C@@H]1[Si](C)(C)c1ccc(C)cc1", "criterion met"],
  ["CC(C)C[C@@H]1NC(=O)[C@H]2C[C@@H](C(=O)NCCCCCC[N+](C)(C)C)[C@@H](c3cccc(OCCO)c3)N2C1=O", "criterion met"],
  ["CC(C)C(O)C1C=CC2C(=O)N(C)C(=O)C2N1N(c1ccccc1)c1ccccc1 (stereo not given)", "criterion not met"],
  ["CC=CC(O)C1C=CC2C(=O)N(C)C(=O)C2N1Nc1ccc([N+](=O)[O-])cc1[N+](=O)[O-] (stereo not given)", "criterion not met"],
  ["COc1cc2c(cc1OC)CN(C(=O)[C@@H]1[C@H]3C(=O)O[C@H](c4ccccc4)[C@H](c4ccccc4)N3[C@H](c3ccccc3OCCO)[C@@]13C(=O)Nc1ccc(C#CC4(O)CCCCCC4)cc13)CC2", "criterion met"],
  ["CN1C(=O)C2C=CC(C(O)C3CCCCC3)N(N3CCCCC3)C2C1=O (stereo not given)", "criterion not met"],
  ["CC(C)CN1C(=O)[C@@]2(c3ccc([N+](=O)[O-])cc3)CC(=O)N(CC34CC5CC(CC(C5)C3)C4)[C@@H]2c2ccc(CO)cc21", "criterion met"],
  ["C=C(CCCC)/C(=C/C[C@@H](OC(=O)c1ccncc1)c1cccc(OCCO)c1)c1cnc2ccccc2c1", "criterion met"],
  ["CCCC[C@@H]1C[C@H]1[C@@H](NC(=O)c1ccccc1)c1ccc(Cl)cc1", "criterion not met"],
  ["C=C(COC)/C(=C/C[C@@H](OC(=O)c1ccncc1)c1ccc(OCCO)cc1)c1cnc2ccccc2c1", "criterion met"],
  ["C=C[C@H](COC(C)=O)NS(=O)(=O)c1ccc(Br)cc1", "criterion met"],
  ["O=C(CCCCCCC(=O)Nc1ccccc1)N/N=C/c1ccccc1", "criterion not met"],
  ["CCOC(=O)[C@@H]1[C@@H]2C(=O)N(CC)C(=O)[C@@H]2C[C@@H]1Sc1ccccc1", "criterion not met"],
  ["COc1ccc([Si](C)(C)[C@@H]2[C@@H](CCO)O[C@]3(C(=O)N(Cc4cccc(N5C(=O)c6cccc7cccc5c67)c4)c4ccccc43)[C@H]2C)cc1", "criterion not met"]
]}

###

assay: splicing luciferase reporter signal modulators, primary screen, spliceosome inhibition project, cell-based, HEK293, splice +/- reporter (AID 1101); conditions: luminescence, 24 h, higher = more signal, called active from +8 up or from −8 down;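 note: HEK293 cells carrying a splicing-competent luciferase reporter gene; test concentration not given here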
z-score by entry:

{"columns": ["molecule", "z-score"],
 "data": [
  ["C=C(/C(=C/C[C@@H](OC(=O)c1ccncc1)c1ccc(OCCO)cc1)c1cc(C(=O)OC)ccc1OC)C(C)C", -0.432],
  ["COCCOC(=O)N1C(=O)[C@@]2(c3cc(C#Cc4ccc(OC)cc4)ccc31)[C@H](C(=O)N1CCCCCCC1)[C@H]1C(=O)O[C@H](c3ccccc3)[C@H](c3ccccc3)N1[C@@H]2c1ccc(O)cc1", -0.527],
  ["COc1cc2c(cc1OC)CN(C(=O)[C@H]1[C@@H]3C(=O)O[C@@H](c4ccccc4)[C@@H](c4ccccc4)N3[C@@H](c3ccc(OCCO)cc3)[C@]13C(=O)Nc1ccc(C#CC4(O)CCCCCC4)cc13)CC2", 0.415]
]}

###

target: Carbonic anhydrase 2 (Homo sapiens) (UniProt P00918); test: CAII small-molecule binders, profiling panel, biochemical, small-molecule microarray, Alexa647-labelled CAII (AID 1122); settings: CAII-A647 binding fluorescence, higher = more signal
assay_metric: composite z-score

{"columns": ["molecule", "assay_metric", "recorded_number"],
 "data": [
  ["CCOC(=O)C[C@H]1[C@H](OC(=O)c2ccccc2-c2ccccc2)[C@@H](NC(=O)CC(C)C)c2cc(OCCCO)ccc2N1C(=O)c1ccc2ccccc2n1", "composite z-score", 0.431],
  ["C=CCN1C(=O)[C@@]2(CCC(=O)OC(C)(C)C)N=C(c3ccc(OCCCO)cc3)O[C@H]2c2ccccc21", "composite z-score", 0.654],
  ["O=C1O[C@H](c2ccccc2)[C@H](c2ccccc2)N2[C@H]1[C@@H](C(=O)O)[C@]1(C(=O)Nc3ccccc31)[C@H]2c1ccc(O)cc1", "composite z-score", 0.673],
  ["COc1ccc(NN2C(C(O)c3ccco3)C=CC3C(=O)N(C4CCCCC4)C(=O)C32)cc1 (configuration not stated)", "composite z-score", 0.377],
  ["Cc1ccc(S[C@]2(C(=O)NC(C)C)CC(=O)N(Cc3ccccc3C(F)(F)F)[C@@H]2c2ccc(CO)cc2I)cc1", "composite z-score", 0.344],
  ["CC(C)(C)OC(=O)CC[C@]1(C(=O)N2CCOCC2)N=C(c2ccc(OCCCO)cc2)O[C@H]1c1ccccc1", "composite z-score", 0.834],
  ["COc1cc2c(cc1OC)CN(C(=O)[C@H]1[C@@H]3C(=O)O[C@@H](c4ccccc4)[C@@H](c4ccccc4)N3[C@@H](c3ccc(OCCO)cc3)[C@]13C(=O)Nc1ccc(C#CCCO)cc13)CC2", "composite z-score", 0.434]
]}

###

target: Left-right determination factor 2 (Homo sapiens) (UniProt O00292); assay: LEFTY2 binders on small-molecule microarrays, primary screen, biochemical, small-molecule microarray, 635 nm fluorescence scan (AID 1110); settings: LEFTY2 binding, higher = more signal
Sequence (O00292 whole entry, looked up): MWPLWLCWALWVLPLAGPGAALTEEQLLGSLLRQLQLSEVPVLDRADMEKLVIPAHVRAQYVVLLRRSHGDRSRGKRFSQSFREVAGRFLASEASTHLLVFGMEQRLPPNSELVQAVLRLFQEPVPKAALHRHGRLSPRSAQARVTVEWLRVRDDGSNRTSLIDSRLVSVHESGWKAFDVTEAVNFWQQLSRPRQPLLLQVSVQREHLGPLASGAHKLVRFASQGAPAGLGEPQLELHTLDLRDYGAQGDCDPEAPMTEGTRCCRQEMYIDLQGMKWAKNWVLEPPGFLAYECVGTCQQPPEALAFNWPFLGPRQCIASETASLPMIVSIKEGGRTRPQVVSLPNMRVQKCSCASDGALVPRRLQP
assay_metric: composite z-score

{"columns": ["compound", "recorded_number"],
 "data": [
  ["O=C1C[C@]2(c3ccc([N+](=O)[O-])cc3)C(=O)N(Cc3ccccc3)c3cc(CO)ccc3[C@H]2N1CC12CC3CC(CC(C3)C1)C2", -1.11],
  ["COc1ccc([Si](C)(C)[C@H]2[C@H](CCn3cc([C@H](O)c4ccccc4)nn3)O[C@@]3(C(=O)N(Cc4ccc(N5CCC5=O)cc4)c4ccccc43)[C@@H]2C)cc1", 0.656],
  ["NC(=O)NCC#Cc1ccc2c(c1)[C@]1(C(=O)N2)[C@H](c2ccc(O)cc2)N2[C@H](c3ccccc3)[C@H](c3ccccc3)OC(=O)[C@H]2[C@@H]1C(=O)Nc1nc2ccccc2s1", 0.413],
  ["CN(C)C(=O)[C@@]1(Cc2ccccc2N=[N+]=[N-])COC(c2ccc(OCCCO)cc2)=N1", -0.475],
  ["C=CCOC(=O)[C@H]1[C@@H]2C(=O)O[C@@H](c3ccccc3)[C@@H](c3ccccc3)N2[C@@H](c2ccc(OCCOC(=O)[C@H]3C[C@H]4C(=O)N[C@@H](Cc5ccccc5)C(=O)N4[C@H]3c3ccc(O)cc3)cc2)[C@]12C(=O)Nc1ccc(I)cc12", 0.537],
  ["O=C1O[C@@H](c2ccccc2)[C@@H](c2ccccc2)N2[C@@H](c3ccccc3OCCO)[C@]3(C(=O)Nc4ccc(C#CCCO)cc43)[C@@H](C(=O)Nc3nc4ccccc4s3)[C@H]12", 1.02],
  ["C[C@H]1C2=C3C(CC[C@H]4C(OCc5ccc(F)cc5C(F)(F)F)OC[C@](C)([C@@H]34)N(C(=O)OC(C)(C)C)C2)C(CO)C1CO (some centres not stated)", -0.593],
  ["COC(=O)[C@]1(CCS(=O)(=O)c2ccccc2)N=C(c2ccc(OCCCO)cc2)O[C@@H]1c1ccccc1CN=[N+]=[N-]", 0.0011],
  ["COc1ccc([Si](C)(C)[C@@H]2[C@@H](CCn3cc([C@H](O)c4ccccc4)nn3)O[C@]3(C(=O)N(Cc4ccc(N5CCOC5=O)cc4)c4ccccc43)[C@H]2C)cc1", 0.846],
  ["CN(C)CCCNC(=O)[C@@]1(C)c2ccccc2C(=O)N(Cc2cc(C(F)(F)F)cc(C(F)(F)F)c2)[C@H]1c1ccc(CO)cc1", -1.31],
  ["C=CCOC(=O)[C@H]1[C@@H]2C(=O)O[C@@H](c3ccccc3)[C@@H](c3ccccc3)N2[C@@H](c2ccc(OCCOC(=O)[C@H]3C[C@H]4C(=O)N[C@@H](CCCC[N+](C)(C)C)C(=O)N4[C@H]3c3cccc(OCCO)c3)cc2)[C@]12C(=O)Nc1ccc(I)cc12", 0.73],
  ["C[n+]1ccc(CCCO)cc1", 0.0525],
  ["CC=CC(O)C1C=CC2C(=O)N(C)C(=O)C2N1Nc1ccc([N+](=O)[O-])cc1[N+](=O)[O-] (configuration not stated)", -0.324],
  ["CC(C)(C)OC(=O)CC[C@]1(C(=O)O)N=C(c2ccc(OCCCO)cc2)O[C@H]1c1ccccc1CN=[N+]=[N-]", -0.688],
  ["CCOc1cc(C(O)C2C=CC3C(=O)N(C)C(=O)C3N2N2CCCCC2)ccc1O (configuration not stated)", 0.298],
  ["O=C1NC(=O)C2C1C=CC(C(O)c1ccc3c(c1)OCO3)N2Nc1ccccn1 (configuration not stated)", 0.324],
  ["COC(=O)C[C@H]1O[C@]2(C(=O)N(C)c3ccccc32)[C@@H](C)[C@@H]1[Si](C)(C)c1ccc(C)cc1", 0.375],
  ["COCCCNC(=O)[C@]1(Cc2ccccc2N=[N+]=[N-])N=C(c2ccc(OCCCO)cc2)O[C@@H]1c1ccccc1N=[N+]=[N-]", -0.282],
  ["CN1C(=O)C2C=CC(C(O)c3c(F)cccc3Cl)N(Nc3ccccc3)C2C1=O (configuration not stated)", -0.445],
  ["COC(=O)[C@@]1(Cc2ccccc2)[C@H]2c3cc(C(=O)N4CCCC4)n(Cc4cc(F)cc5c4OCOC5)c3C[C@H]2CN1C(=O)c1ccccc1", -0.655],
  ["C=C(/C=C/CNS(=O)(=O)c1ccc(C)cc1)[C@H](O)[C@H]1CCCN1S(=O)(=O)c1ccccc1[N+](=O)[O-]", 0.77],
  ["C=C(CCCC)C(=O)CC[C@@H](OC(=O)c1cccnc1)c1ccccc1OCCO", -0.0055],
  ["O=C1C2C=CC(C(O)c3cc(C(F)(F)F)cc(C(F)(F)F)c3)N(Nc3ccc([N+](=O)[O-])cc3)C2C(=O)N1c1ccccc1 (configuration not stated)", 0.511],
  ["O=C1O[C@@H](c2ccccc2)[C@@H](c2ccccc2)N2[C@@H](c3ccc(O)cc3)[C@]3(C(=O)Nc4ccccc43)[C@@H](C(=O)Nc3nc4ccccc4s3)[C@H]12", 0.0034],
  ["Cc1ccc(S[C@]2(C(=O)NC(C)C)CC(=O)N(C3Cc4ccccc4C3)[C@@H]2c2ccc(CO)cc2I)cc1", -2.04],
  ["C=CC[C@@H](OC(=O)Nc1ccc(OC)cc1)c1ccc(OCCO)cc1", -1.8],
  ["CCCCC(CC)C(O)C1C=CC2C(=O)N(c3ccccc3)C(=O)C2N1Nc1ccc([N+](=O)[O-])cc1 (configuration not stated)", 0.362]
]}
